Provide the reported pIC50 of each item.
Target: EGFR L858R/T790M/C797S mutant (Homo sapiens (Human), UniProt P00533, C797S/L858R/T790M)
Sequence (P00533 25-1210 T790M/C797S/L858R): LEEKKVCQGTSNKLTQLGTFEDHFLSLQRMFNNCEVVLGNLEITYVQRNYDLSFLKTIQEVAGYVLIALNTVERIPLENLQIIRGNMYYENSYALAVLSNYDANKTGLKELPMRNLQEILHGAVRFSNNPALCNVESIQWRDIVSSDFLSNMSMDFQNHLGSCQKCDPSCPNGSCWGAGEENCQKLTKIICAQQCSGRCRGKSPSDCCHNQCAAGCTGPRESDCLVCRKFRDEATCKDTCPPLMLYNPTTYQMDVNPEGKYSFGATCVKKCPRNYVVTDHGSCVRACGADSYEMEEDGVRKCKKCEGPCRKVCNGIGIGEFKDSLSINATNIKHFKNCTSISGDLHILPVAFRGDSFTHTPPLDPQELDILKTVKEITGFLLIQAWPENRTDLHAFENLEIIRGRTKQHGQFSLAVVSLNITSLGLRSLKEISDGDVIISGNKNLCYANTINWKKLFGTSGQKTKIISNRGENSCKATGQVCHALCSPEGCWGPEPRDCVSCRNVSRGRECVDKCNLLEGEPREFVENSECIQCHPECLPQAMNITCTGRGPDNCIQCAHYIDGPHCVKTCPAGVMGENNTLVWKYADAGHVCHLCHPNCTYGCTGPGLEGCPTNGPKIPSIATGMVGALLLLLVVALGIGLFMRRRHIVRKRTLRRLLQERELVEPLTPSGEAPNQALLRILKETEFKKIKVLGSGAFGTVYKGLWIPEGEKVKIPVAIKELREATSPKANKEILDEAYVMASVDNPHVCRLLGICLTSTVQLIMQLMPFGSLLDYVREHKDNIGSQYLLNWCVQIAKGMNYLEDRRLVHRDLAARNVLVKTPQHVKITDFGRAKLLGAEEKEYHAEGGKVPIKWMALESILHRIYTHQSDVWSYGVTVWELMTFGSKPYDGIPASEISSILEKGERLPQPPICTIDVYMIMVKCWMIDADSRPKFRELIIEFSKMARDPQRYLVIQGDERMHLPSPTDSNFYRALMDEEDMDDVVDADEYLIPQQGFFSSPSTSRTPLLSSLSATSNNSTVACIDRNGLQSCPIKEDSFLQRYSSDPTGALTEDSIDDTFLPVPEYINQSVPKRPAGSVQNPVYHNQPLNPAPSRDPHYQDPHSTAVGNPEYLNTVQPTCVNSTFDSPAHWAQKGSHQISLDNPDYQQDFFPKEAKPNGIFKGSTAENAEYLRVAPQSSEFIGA
Assay: HotSpot radiometric kinase assay, EGFR L858R/T790M/C797S mutant
Details: 10 μM ATP
Description: Biochemical Assays for Inhibition of Wild-Type and Mutant EGFRs Briefly, specific kinase/substrate pairs along with required cofactors were prepared in reaction buffer; 20 mM Hepes pH 7.5, 10 mM […], 1 mM EGTA, 0.02% Brij35, 0.02 mg/ml BSA, 0.1 mM Na3VO4, 2 mM DTT, 1% DMSO. Compounds were delivered into the reaction, followed […] later by addition of a mixture of ATP (Sigma, St. Louis MO) and ^33P ATP (Perkin Elmer, Waltham MA) to a final concentration of 10 μM. […]
Numbers only, as −log10 of the molar value.

Recorded pIC50, per entry:
>>> val("Cc1nn(C)c2c1/C=C/c1n[nH]c3ccc(cc13)-c1cnn(C)c1O[C@@H](C)CCO2")
7.51
>>> val("C[C@H]1CN(C)Cc2c(c(OC3CN(S(C)(=O)=O)C3)nn2C)/C=C/c2n[nH]c3ccc(cc23)-c2cnn(C)c2O1")
9.43

Please state pIC50 for every compound in the list that follows.
1. C[C@H]1CN(C)Cc2cnn(C)c2/C=C/c2n[nH]c3ccc(cc23)-c2cnn(C)c2O1
2. CC(C)Oc1nn(CCO)c2c1/C=C/c1n[nH]c3ccc(cc13)-c1cnn(C)c1O[C@@H](C#N)CN(C)C2
3. Cc1c2c(nn1CCO)OCCOC(C)c1c(cnn1C)-c1ccc3[nH]nc(c3c1)/C=C/2 (centres unmarked)
4. CCOc1nn([C@@H](C)CO)c2c1/C=C/c1n[nH]c3cc(F)c(cc13)-c1cnn(C)c1OC[C@H](C)N(C(C)C)C2

8.00
8.06
7.17
7.98

----------
Provide the reported IC50 of each item.
Molecular target: EGFR Δ746-750 mutant (Homo sapiens (Human), UniProt P00533, DEL746-750)
Sequence (P00533 other isoform, or with tags, fused parts or gaps del 1-668/del 746-750 limits assumed): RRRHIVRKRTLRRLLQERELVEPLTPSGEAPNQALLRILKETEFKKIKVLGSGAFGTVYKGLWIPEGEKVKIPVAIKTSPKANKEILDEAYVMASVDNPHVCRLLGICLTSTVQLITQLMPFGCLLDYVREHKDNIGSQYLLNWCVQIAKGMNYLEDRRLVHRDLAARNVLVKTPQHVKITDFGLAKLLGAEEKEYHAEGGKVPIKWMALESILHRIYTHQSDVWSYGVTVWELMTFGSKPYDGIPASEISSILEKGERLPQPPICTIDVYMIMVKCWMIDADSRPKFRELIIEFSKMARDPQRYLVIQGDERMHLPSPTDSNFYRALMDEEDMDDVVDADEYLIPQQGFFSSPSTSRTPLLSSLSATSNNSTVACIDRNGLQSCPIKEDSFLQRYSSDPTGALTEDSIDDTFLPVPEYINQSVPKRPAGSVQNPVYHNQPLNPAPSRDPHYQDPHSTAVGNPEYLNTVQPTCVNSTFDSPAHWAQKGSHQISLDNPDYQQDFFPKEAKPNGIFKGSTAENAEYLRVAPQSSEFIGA
Test: HotSpot radiometric kinase assay, EGFR Δ746-750 mutant
Settings: 10 μM ATP
Give bare numbers, in nM.

>>> val("Cc1nn([C@H]2CN(C)C[C@@H]2O)c2c1/C=C/c1n[nH]c3ccc(cc13)-c1cnn(C)c1CN(C)CCO2 (racemic)")
84.9
>>> val("Cc1c2c(nn1CCO)OCCOC(C)c1c(cnn1C)-c1ccc3[nH]nc(c3c1)/C=C/2 (centres unmarked)")
596

Please state IC50 for every compound in the list that follows.
1. Cc1nn([C@H]2CCNC[C@@H]2O)c2c1/C=C/c1n[nH]c3ccc(cc13)-c1cnn(C)c1OCCCO2 (racemic)
2. CC(C)Oc1nn(CCO)c2c1/C=C/c1n[nH]c3cc(F)c(cc13)-c1cnn(C)c1O[C@@H]1CCCN(C2)C1
3. C[C@H]1CN(C)Cc2c(c(OC3CC(S(C)(=O)=O)C3)nn2C)/C=C/c2n[nH]c3ccc(cc23)-c2cnn(C)c2O1 (some centres unmarked)

1. 38.7
2. 147
3. 8.88

----------
Values of pIC50 reported for CLK1 (Homo sapiens (Human), UniProt P49759) appear below.
Answers are plain numbers, as −log10 of the molar value.

Please state pIC50 for every compound in the list that follows.
1. C[C@H]1CN(C)Cc2c(c(OCC(F)(F)F)nn2C)/C=C/c2n[nH]c3ccc(cc23)-c2cnn(C)c2O1 [Example 162]
2. CC(C)Oc1nn(CCO)c2c1/C=C/c1n[nH]c3cc(F)c(cc13)-c1cnn(C)c1O[C@@H]1CCCN(C2)C1 [Example 199]

1. 9.96
2. 8.98

Please state pIC50 for every compound in the list that follows.
1. CCOc1nn(C)c2c1/C=C/c1n[nH]c3cc(F)c(cc13)-c1cnn(C)c1OC1CCCN(C2)C1 (stereo in doubt) [Example 178]
2. CCOc1nn(CCO)c2c1/C=C/c1n[nH]c3ccc(cc13)-c1cnn(C)c1O[C@@H](C)CN(C(C)C)C2 [Example 151]
3. CCOc1nn(CCO)c2c1/C=C/c1n[nH]c3cc(F)c(cc13)-c1cnn(C)c1O[C@@H]1CCCN(C2)C1 [Example 191]

[8.97, 9.62, 8.62]

Please state pIC50 for every compound in the list that follows.
1. Cn1ncc2c1OCCN1CC[C@@H](Oc3ccc(F)cc3/C=C/c3n[nH]c4ccc-2cc34)C1=O [Example 132]
2. CCOc1nn(C)c2c1/C=C/c1n[nH]c3ccc(cc13)-c1cnn(C)c1O[C@@H](C)CN(C(C)C)C2 [Example 156]

[9.72, 9.38]

----------
Molecular target: EGFR Δ746-750/C797S mutant (Homo sapiens (Human), UniProt P00533, C797S/DEL746-750)
Sequence (P00533 other isoform, or with tags, fused parts or gaps C797S/del 1-668/del 746-750 limits assumed): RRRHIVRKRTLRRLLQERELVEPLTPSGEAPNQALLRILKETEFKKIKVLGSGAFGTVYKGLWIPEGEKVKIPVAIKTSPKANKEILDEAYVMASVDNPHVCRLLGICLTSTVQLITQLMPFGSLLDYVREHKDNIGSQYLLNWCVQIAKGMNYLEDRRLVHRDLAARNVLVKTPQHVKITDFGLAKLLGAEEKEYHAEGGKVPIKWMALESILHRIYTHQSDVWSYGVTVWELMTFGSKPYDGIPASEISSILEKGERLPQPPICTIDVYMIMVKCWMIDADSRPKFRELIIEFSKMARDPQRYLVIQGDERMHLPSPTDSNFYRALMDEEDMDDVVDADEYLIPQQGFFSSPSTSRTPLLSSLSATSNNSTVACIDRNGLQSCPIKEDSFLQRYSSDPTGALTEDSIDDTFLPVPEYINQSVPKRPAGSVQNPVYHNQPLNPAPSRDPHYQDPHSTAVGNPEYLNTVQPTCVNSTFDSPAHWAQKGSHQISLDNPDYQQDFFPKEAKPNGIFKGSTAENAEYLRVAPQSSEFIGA
Experiment: HotSpot radiometric kinase assay, EGFR Δ746-750/C797S mutant
Details: 10 μM ATP
Provide the reported IC50 of each item.
Answers are plain numbers, in nM.

>>> val("Cc1c2c(nn1C)CN(C)C[C@H](C)Oc1c(cnn1C)-c1ccc3[nH]nc(c3c1)/C=C/2")
7.29
>>> val("C[C@H]1CN(C)Cc2c(c(OC3CC(S(C)(=O)=O)C3)nn2C)/C=C/c2n[nH]c3ccc(cc23)-c2cnn(C)c2O1 (stereo partly shown)")
7.84
>>> val("Cc1c2c(nn1CCN1CCOCC1)CN(C)C[C@H](C)Oc1c(cnn1C)-c1ccc3[nH]nc(c3c1)/C=C/2")
16.7
>>> val("CN(C)Cc1ccc2c(c1)O[C@@H]1CCN(CCOc3c(cnn3C)-c3ccc4[nH]nc(c4c3)/C=C/2)C1=O")
14.1
>>> val("CCOc1nn(C)c2c1/C=C/c1n[nH]c3ccc(cc13)-c1cnn(C)c1O[C@@H]1CCCN(C2)C1")
19.5
>>> val("C[C@H]1CN(C)Cc2c(c(O[C@H]3CCN(S(C)(=O)=O)C3)nn2CCO)/C=C/c2n[nH]c3ccc(cc23)-c2cnn(C)c2O1")
6.6

Would you kindly look at the next entry?
Item under review: CC(C)Oc1nn(CCO)c2c1/C=C/c1n[nH]c3ccc(cc13)-c1cnn(C)c1O[C@@H](C)C(=O)N(C)C2 . Reported IC50?
475

----------
Values of pIC50 reported for EGFR WT (Homo sapiens (Human)) appear below.
Give bare numbers, as −log10 of the molar value.

>>> val("Cc1c2c(nn1CCO)CN(C)C[C@H](C)Oc1c(cnn1C)-c1ccc3[nH]nc(c3c1)/C=C/2")
6.24
>>> val("CCc1nn(C)c2c1/C=C/c1n[nH]c3ccc(cc13)-c1cnn(C)c1OCC[C@@H](C)O2")
6.38
>>> val("CCOc1nn([C@@H](C)CO)c2c1/C=C/c1n[nH]c3cc(F)c(cc13)-c1cnn(C)c1O[C@@H](C)CN(C)C2")
9.11
>>> val("Cc1nn(C)c2c1/C=C/c1n[nH]c3ccc(cc13)-c1cnn(C)c1O[C@@H](C)CN(C)C2")
7.38
>>> val("CCOc1nn(CCO)c2c1/C=C/c1n[nH]c3ccc(cc13)-c1cnn(C)c1O[C@@H](C)CN(C)C2")
8.63

Please state pIC50 for every compound in the list that follows.
1. COCc1nn(CCO)c2c1/C=C/c1n[nH]c3ccc(cc13)-c1cnn(C)c1O[C@@H](C)CN(C)C2
2. CC(C)Oc1nn(CCO)c2c1/C=C/c1n[nH]c3ccc(cc13)-c1cnn(C)c1O[C@@H](C)C(=O)N(C)C2
3. Cc1c2c(nn1[C@H]1C[C@@H](N(C)CCN(C)C)C1)OCCCOc1c(cnn1C)-c1ccc3[nH]nc(c3c1)/C=C/2
4. C[C@H]1CN(C)Cc2c(c(OC3CN(S(C)(=O)=O)C3)nn2C)/C=C/c2n[nH]c3ccc(cc23)-c2cnn(C)c2O1
5. Cc1c2c(nn1C)OCCCOc1c(cnn1C)-c1ccc3[nH]nc(c3c1)/C=C/2

7.03
5.84
7.20
8.20
5.93

Please state pIC50 for every compound in the list that follows.
1. Cc1c2c(nn1C)CN(C)CCOc1c(cnn1C)-c1ccc3[nH]nc(c3c1)/C=C/2
2. Cc1nn(C[C@@H](C)O)c2c1/C=C/c1n[nH]c3ccc(cc13)-c1cnn(C)c1O[C@@H](C)CN(C)C2

1: 5.83; 2: 7.95

----------
Target: EGFR L858R/T790M/C797S mutant (Homo sapiens (Human), UniProt P00533, C797S/L858R/T790M)
Assay: HotSpot radiometric kinase assay, EGFR L858R/T790M/C797S mutant
Conditions: 10 μM ATP
PROPERTY: IC50 (nM)
Give bare numbers, in nM.

>>> val("Cc1nn([C@H]2CN(C)C[C@@H]2O)c2c1/C=C/c1n[nH]c3ccc(cc13)-c1cnn(C)c1OCCCO2 (racemic)")
21.2

Please state IC50 for every compound in the list that follows.
1. CC(C)Oc1nn([C@@H](C)CO)c2c1/C=C/c1n[nH]c3cc(F)c(cc13)-c1cnn(C)c1O[C@@H](C)CN(C)C2
2. Cc1nn(CCO)c2c1/C=C/c1n[nH]c3cc(F)c(cc13)-c1cnn(C)c1O[C@@H](C)CN(C)C2
3. Cc1nn(C)c2c1/C=C/c1n[nH]c3ccc(cc13)-c1cnn(C)c1CN(C)[C@@H](C)CO2
4. CC(C)Oc1nn(CCO)c2c1/C=C/c1n[nH]c3cc(F)c(cc13)-c1cnn(C)c1O[C@H](C)[C@H]1CCCN1C2 (single isomer, unassigned)
5. Cc1c2c(nn1CCO)CN(C)C[C@H](C)Oc1c(cnn1C)-c1ccc3[nH]nc(c3c1)/C=C/2
6. Cc1nn([C@H]2CNC[C@@H]2O)c2c1/C=C/c1n[nH]c3ccc(cc13)-c1cnn(C)c1OCCCO2 (racemic)
7. CCOc1nn(CCO)c2c1/C=C/c1n[nH]c3ccc(cc13)-c1cnn(C)c1O[C@@H]1CN(C)C[C@H]1N(C)C2 (single isomer, unassigned)
8. CC(C)Oc1nn(CCO)c2c1/C=C/c1n[nH]c3ccc(cc13)-c1cnn(C)c1O[C@H](C)CN(C(C)C)C2

1: 0.69; 2: 2.71; 3: 10.8; 4: 6.62; 5: 3.27; 6: 15.8; 7: 31.6; 8: 1.05

Please state IC50 for every compound in the list that follows.
1. CNC(=O)c1cnc2c(c1)/C=C/c1n[nH]c3ccc(cc13)-c1cnn(C)c1COCCO2
2. CCOc1nn(CCO)c2c1/C=C/c1n[nH]c3cc(F)c(cc13)-c1cnn(C)c1O[C@@H]1CCCN(C2)C1

1. 863
2. 2.63
